target: UniProtKB P15514; assay: In vitro amphiregulin shedding inhibition
Examples of compounds with documented IC50 follow.

| SMILES_STRING | IC50 [nM] |
| --- | --- |
| COc1ccc([P@](=O)(OCCC(F)(F)F)N2Cc3ccccc3C[C@@H]2C(=O)NO)cc1 | 970 |
| CCO[P@@](=O)(c1ccc(OC)cc1)N1Cc2ccccc2C[C@@H]1C(=O)NO | 350 |
| COc1ccc([P@](=O)(OCC(F)F)N2Cc3ccccc3C[C@@H]2C(=O)NO)cc1 | 1470 |
| COc1ccc([P@](=O)(OCCF)N2Cc3ccccc3C[C@@H]2C(=O)NO)cc1 | 470 |
| COc1ccc([P@](=O)(OCC(F)(F)F)N2Cc3ccccc3C[C@@H]2C(=O)NO)cc1 | 950 |
